FYI, the data here is from patent EP1976513B1.

- assayed system: human serotonin reuptake transporter (Homo sapiens)
- Sequence (P31645 whole entry): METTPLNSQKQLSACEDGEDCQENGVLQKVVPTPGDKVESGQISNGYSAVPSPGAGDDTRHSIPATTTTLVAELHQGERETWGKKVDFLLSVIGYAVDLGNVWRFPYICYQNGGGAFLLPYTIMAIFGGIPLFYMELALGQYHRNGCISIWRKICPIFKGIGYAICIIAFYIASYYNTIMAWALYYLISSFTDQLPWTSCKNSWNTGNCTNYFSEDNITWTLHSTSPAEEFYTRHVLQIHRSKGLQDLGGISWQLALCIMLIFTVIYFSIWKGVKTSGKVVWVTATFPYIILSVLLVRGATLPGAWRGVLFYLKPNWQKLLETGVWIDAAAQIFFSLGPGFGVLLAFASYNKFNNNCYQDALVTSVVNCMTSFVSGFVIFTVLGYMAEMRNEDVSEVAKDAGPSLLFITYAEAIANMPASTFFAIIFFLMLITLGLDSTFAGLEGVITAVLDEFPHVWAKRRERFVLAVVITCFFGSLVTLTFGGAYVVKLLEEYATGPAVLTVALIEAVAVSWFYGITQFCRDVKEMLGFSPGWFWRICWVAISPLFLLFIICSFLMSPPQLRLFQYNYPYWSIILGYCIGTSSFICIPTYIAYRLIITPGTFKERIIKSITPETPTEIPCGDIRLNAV
- experimental protocol: cell-based
- applied conditions: recombinant human serotonin transporter (SERT); read-out: Human IC50 (nM) hSERT
Structures can show the parent of a compound that is named as a salt.
Let's look at some compounds and their measured IC50.

Solved entries:
{"columns": ["compound", "IC50"],
 "data": [
  ["NCC1(c2ccccc2)CCCCC1 [Compound 31, hydrochloride]", "> 10000 nM"],
  ["CC1(O)CCC(CN)(c2ccc(Cl)c(Cl)c2)CC1 (centres unmarked) [Compound 272]", "> 10000 nM"],
  ["CN1Cc2c(ccc3c2OCO3)C2(CCC(C)(O)CC2)C1 (single isomer, unassigned) [Compound 295]", "> 10000 nM"],
  ["CNC(=O)[C@]1(c2ccc3ccccc3c2)CCCC[C@H]1O (relative stereo) [Compound 301]", "> 10000 nM"],
  ["CNCC1(c2ccc3c(c2)OCO3)CCC(C)(O)CC1 (centres unmarked) [Compound 239]", "8660 nM"],
  ["CNCC1(c2ccc3ccccc3c2)CCC(F)(F)CC1 [Compound 251]", "199 nM"]
]}

Lab note: CN1Cc2c(ccc3c2OCO3)C2(CCC(C)(O)CC2)C1 (single isomer, unassigned) [Compound 294] gave IC50 of > 10000 nM

Item: CNCC1(c2ccc(Cl)c(Cl)c2)CCC(F)CC1 (centres unmarked) [Compound 264] | IC50: 1050 nM

Measured IC50 of CNCC1(c2ccc(OC)cc2)CCCCC1O (single isomer, unassigned) [139 E1] : > 10000 nM

Note to self: IC50 recorded for CNC(C)C1(c2ccc(OC(F)(F)F)cc2)CCCCC1 (single isomer, unassigned) [64 E2] was 32 nM

// CNC(C)C1(c2ccc3ccccc3c2)CCC(C)(O)CC1 (single isomer, unassigned) [231 E2] : IC50 value = 63 nM
